These measurements were taken from the supplement of paper PMC12494721.

- Test system: Ruminococcus gnavus DSM 108212
- ASSAY_METHOD_TEXT: fold change of 2-Phenylethylamine concentration vs plate DMSO controls (fold change (ratio)); higher = more amine produced, active = hit call of the paper (significant change in both replicates, either direction)
- CONDITION_PARAMETERS: incubation time: 27 h, anaerobic, 37 °C
Structures can show the parent of a compound that is named as a salt.
PROPERTY_NAME: fold change of 2-Phenylethylamine concentration
Numbers only.

- COMPOUND: "CC1=NN(c2ccccc2)C(=O)C1 [Edaravone] (20 µM)"
  MEASUREMENT: 0.984
- COMPOUND: "COc1ccc(C[C@@H]2c3cc(OC)c(OC)cc3CC[N@+]2(C)CCC(=O)OCCCCCOC(=O)CC[N@@+]2(C)CCc3cc(OC)c(OC)cc3[C@H]2Cc2ccc(OC)c(OC)c2)cc1OC [Cisatracurium besylate] (20 µM)"
  MEASUREMENT: 1.01
- COMPOUND: "CNc1ncnc2c1ncn2[C@@H]1O[C@H](CO)[C@@H](O)[C@H]1O [N6-methyladenosine] (20 µM)"
  MEASUREMENT: 1.01
- COMPOUND: "CCN(CC)CCNC(=O)COc1ccc(OC)cc1 [Mefexamide hydrochloride] (20 µM)"
  MEASUREMENT: 0.977

-- ask Requested read-out: fold change of 2-Phenylethylamine concentration. Entry: CCCNC(C)C(=O)Nc1ccccc1C (stereo not given) [Prilocaine hydrochloride] (20 µM)
-- reply 1

---

- System: Clostridium sporogenes DSM 1664
- ASSAY_METHOD_TEXT: fold change of Tryptamine concentration vs plate DMSO controls (fold change (ratio)); higher = more amine produced, active = hit call of the paper (significant change in both replicates, either direction)
- CONDITION_PARAMETERS: incubation time: 27 h, anaerobic, 37 °C
Structures can show the parent of a compound that is named as a salt.
PROPERTY_NAME: fold change of Tryptamine concentration
Answers are plain numbers.

- COMPOUND: "O=C(O)c1cccnc1 [Niacin] (20 µM)"
  fold change of Tryptamine concentration: 0.994
- COMPOUND: "O=C(O)Cc1sc(-c2ccccc2)nc1-c1ccc(Cl)cc1 [Fentiazac] (20 µM)"
  fold change of Tryptamine concentration: 0.999
- COMPOUND: "CCCCOc1ccc(OCCCN2CCOCC2)cc1 [Pramoxine hydrochloride] (20 µM)"
  fold change of Tryptamine concentration: 1.06

Look up fold change of Tryptamine concentration for the entries below, preserving their order.
1. C[C@]12C=CC(=O)C=C1CC[C@@H]1[C@@H]2C(=O)C[C@@]2(C)[C@H]1CC[C@]2(O)C(=O)CO [Prednisone] (20 µM)
2. CSc1ccc2c(c1)N(CCC1CCCCN1C)c1ccccc1S2 (stereo not given) [Thioridazine hydrochloride] (20 µM)
3. CN(C(=O)CN(CCO)CC(=O)N(C)C(C)(C)Cc1ccccc1)C(C)(C)Cc1ccccc1 [Oxethazaine] (20 µM)

-- reply
1: 1.04; 2: 1.12; 3: 0.918

Look up fold change of Tryptamine concentration for the entries below, preserving their order.
1. CN1CCN(C(c2ccccc2)c2ccccc2)CC1 [Cyclizine hydrochloride] (20 µM)
2. O=C(CO)[C@@H](O)[C@@H](O)[C@H](O)CO [D-Tagatose] (50 µM)
3. NC[C@H]1O[C@H](O[C@H]2[C@H](O)[C@@H](O[C@H]3O[C@H](CO)[C@@H](O)[C@H](N)[C@H]3O)[C@H](N)C[C@@H]2N)[C@H](N)C[C@@H]1O [Tobramycin] (20 µM)
4. Nc1ncn(C2OC(CO)C(O)C2O)c(=O)n1 (stereo not given) [Azacytidine-5] (20 µM)

-- reply
0.968
0.991
1.13
0.953

Look up fold change of Tryptamine concentration for the entries below, preserving their order.
1. N#Cc1cc(NC(=O)C(=O)O)c(Cl)c(NC(=O)C(=O)O)c1 [Lodoxamide] (20 µM)
2. CCc1cccc2c3c([nH]c12)C(CC)(CC(=O)O)OCC3 (stereo not given) [Etodolac] (20 µM)
3. CCN(CC)C(=O)c1cccnc1 [Nikethamide] (20 µM)
4. CC(C)CC(=O)N[C@H](C(=O)N[C@H](C(=O)N[C@@H](CC(C)C)[C@@H](O)CC(=O)N[C@@H](C)C(=O)N[C@@H](CC(C)C)[C@@H](O)CC(=O)O)C(C)C)C(C)C [Pepstatin A] (20 µM)

-- reply
1: 1.05; 2: 0.981; 3: 1.05; 4: 1.06

-- ask Requested read-out: fold change of Tryptamine concentration. Entry: CC(COc1ccccc1)N(CCCl)Cc1ccccc1 (stereo not given) [Phenoxybenzamine hydrochloride] (20 µM)
-- reply 1

---

- Test system: Klebsiella aerogenes DSM 30053
- ASSAY_METHOD_TEXT: fold change of Putrescine concentration vs plate DMSO controls (fold change (ratio)); higher = more amine produced, active = hit call of the paper (significant change in both replicates, either direction)
- CONDITION_PARAMETERS: incubation time: 27 h, anaerobic, 37 °C
Structures can show the parent of a compound that is named as a salt.
I'd be grateful if you could share measured fold change of Putrescine concentration for these entries.
Give bare numbers.

Past entries and their recorded results:
- COMPOUND: "CCC1=C(C)CN(C(=O)NCCc2ccc(S(=O)(=O)NC(=O)N[C@H]3CC[C@H](C)CC3)cc2)C1=O [Glimepiride] (20 µM)"
  fold change of Putrescine concentration: 0.997
- COMPOUND: "C=CCN1CCCC1CNC(=O)c1cc2nn[nH]c2cc1OC (stereo not given) [Alizapride hydrochloride] (20 µM)"
  fold change of Putrescine concentration: 0.988
- COMPOUND: "Cn1cc(C(=O)Nc2ccc(F)cc2-c2ccc(Cl)c(Cl)c2)c(C(F)F)n1 (20 µM)"
  fold change of Putrescine concentration: 1.01
- COMPOUND: "CC(=O)O[C@]1(C(C)=O)CC[C@H]2[C@@H]3C=C(Cl)C4=CC(=O)CC[C@]4(C)[C@H]3CC[C@@]21C [Chlormadinone acetate] (20 µM)"
  fold change of Putrescine concentration: 1.02
- COMPOUND: "O=C(O)c1ccccc1Nc1cc(Cl)ccc1C(=O)O [Lobenzarit disodium] (20 µM)"
  fold change of Putrescine concentration: 0.994

Look up fold change of Putrescine concentration for the entries below, preserving their order.
1. Cc1cc2c(s1)Nc1ccccc1N=C2N1CCN(C)CC1 [Olanzapine] (20 µM)
2. CCCSc1ccc2[nH]c(NC(=O)OC)nc2c1 [Albendazole] (20 µM)
3. CC(=O)Nc1ccc(OCC(O)CNC(C)C)cc1 (stereo not given) [Practolol] (20 µM)
4. CC(CCc1ccccc1)NCC(O)c1ccc(O)c(C(N)=O)c1 (stereo not given) [Labetalol hydrochloride] (20 µM)
5. CCCNC(C)(C)C(=O)Nc1ccccc1C [Quatacaine] (20 µM)
6. CC12CC3CC(C)(C1)CC(N)(C3)C2 [Memantine hydrochloride] (20 µM)

-- reply
0.988
1.02
0.993
0.996
1
0.984

Look up fold change of Putrescine concentration for the entries below, preserving their order.
1. CN1Cc2c(N)cccc2C(c2ccccc2)C1 (stereo not given) [Nomifensine maleate] (20 µM)
2. C#C[C@]1(O)CC[C@H]2[C@@H]3CCc4cc(O)ccc4[C@H]3CC[C@@]21C [Ethinylestradiol] (20 µM)

-- reply
1: 1.01; 2: 0.998

Look up fold change of Putrescine concentration for the entries below, preserving their order.
1. CCc1ccc(C(=O)C(C)CN2CCCCC2)cc1 (stereo not given) [Eperisone Hydrochloride] (20 µM)
2. C1N2CN3CN1CN(C2)C3 [Methenamine] (20 µM)
3. Cc1cccc(Nc2ccccc2C(=O)O)c1C [Mefenamic acid] (20 µM)
4. Cc1ncc([N+](=O)[O-])n1CC(O)CCl (stereo not given) [Ornidazole] (20 µM)
5. Oc1c(Br)cc(Br)c2cccnc12 [Broxyquinoline] (20 µM)
6. Cc1cnc(C(=O)NCCc2ccc(S(=O)(=O)NC(=O)NC3CCCCC3)cc2)cn1 [Glipizide] (20 µM)
7. CC1(C)S[C@@H]2[C@H](NC(=O)[C@H](N)c3ccccc3)C(=O)N2[C@H]1C(=O)O [Ampicillin sodium salt] (20 µM)
8. CC(=O)OCC(=O)[C@@]12N=C(C)O[C@@H]1C[C@H]1[C@@H]3CCC4=CC(=O)C=C[C@]4(C)[C@H]3[C@@H](O)C[C@@]12C [Deflazacort] (20 µM)

-- reply
1. 0.98
2. 0.982
3. 0.998
4. 0.986
5. 1.02
6. 0.998
7. 1.02
8. 1

Look up fold change of Putrescine concentration for the entries below, preserving their order.
1. CCOc1ccccc1C(N)=O [Ethenzamide] (20 µM)
2. Cc1cc(-c2ccccc2)nnc1NCCN1CCOCC1 [Minaprine dihydrochloride] (20 µM)
3. CN(C)CCC(c1ccc(Cl)cc1)c1ccccn1 (stereo not given) [Chlorpheniramine maleate] (20 µM)
4. CC=CC(=O)N(CC)c1ccccc1C [Crotamiton] (20 µM)

-- reply
0.985
0.998
0.989
1.01
